- test_details: Primary screening of photostability of the CyNA library (time-course fluorescence, 8 h)
- Format: physicochemical
- experimental_parameters: 10 μM in HEPES 100 mM pH 7.4, 2% DMSO
measurement_label: max RFU, maximum relative fluorescence units

Task item: Please look up its max RFU, maximum relative fluorescence units: CCCN1/C(=C/C=C2\CCCC(/C=C/C3=[N+](CCC)c4ccccc4C3(C)C)=C2N(Cc2cc(OC)c(OC)c(OC)c2)C(C)=O)C(C)(C)c2ccccc21
Reply: 892.3

Task item: Thanks! And CCCN1/C(=C/C=C2\CCCC(/C=C/C3=[N+](CCC)c4ccccc4C3(C)C)=C2N(C(C)=O)C2CCCCCCC2)C(C)(C)c2ccccc21 ?
Reply: 902.7

Task item: Another: CCCCC(CC)COCCCN(C(C)=O)C1=C(/C=C/C2=[N+](CCC)c3ccccc3C2(C)C)CCC/C1=C\C=C1\N(CCC)c2ccccc2C1(C)C (stereo not drawn)
Reply: 58.7

Task item: Please give the result for CCCN1/C(=C/C=C2\CCCC(/C=C/C3=[N+](CCC)c4ccccc4C3(C)C)=C2N(Cc2ccc(C)cc2)C(C)=O)C(C)(C)c2ccccc21 too.
Reply: 736.1

Task item: How about this molecule: CCCN1/C(=C/C=C2\CCCC(/C=C/C3=[N+](CCC)c4ccccc4C3(C)C)=C2N(CCCc2ccccc2)C(C)=O)C(C)(C)c2ccccc21
Reply: 167.9

Task item: Then CCCN1/C(=C/C=C2\CCCC(/C=C/C3=[N+](CCC)c4ccccc4C3(C)C)=C2N(CCc2cccc(F)c2)C(C)=O)C(C)(C)c2ccccc21 ?
Reply: 138.5
